assay: Antioxidant activity assessed as DPPH radical scavenging activity after 30 mins by plate reader analysis; assay type: physicochemical
pEC50: −log10 of the molar value.
measurement kind: pEC50

| smiles str | pEC50 |
| --- | --- |
| COc1cc(/C=C/C(=O)O[C@H]2[C@H](OC[C@H]3O[C@@H](Oc4cc5c(cc4O)C[C@@H](C(=O)O)N5C(=O)/C=C/c4ccc(O)c(OC)c4)[C@H](O)[C@@H](O)[C@@H]3O)O[C@H](CO)[C@@H](O)[C@@H]2O)ccc1O | 4.56 |
| COc1cc(/C=C/C(=O)N2c3cc(O[C@@H]4O[C@H](CO[C@@H]5O[C@H](CO)[C@@H](O)[C@H](O)[C@H]5O)[C@@H](O)[C@H](O)[C@H]4O)c(O)cc3C[C@H]2C(=O)O)ccc1O[C@@H]1O[C@H](CO)[C@@H](O)[C@H](O)[C@H]1O | 4.39 |
| O=C(O)[C@@H]1Cc2cc(O)c(O[C@@H]3O[C@H](CO[C@@H]4O[C@H](CO)[C@@H](O)[C@H](O)[C@H]4O)[C@@H](O)[C@H](O)[C@H]3O)cc2N1C(=O)/C=C/c1ccc(O)cc1 | 4.37 |
| COc1cc(/C=C/C(=O)N2c3cc(O[C@@H]4O[C@H](CO)[C@@H](O)[C@H](O)[C@H]4O)c(O)cc3C[C@H]2C(=O)O)ccc1O[C@@H]1O[C@H](CO)[C@@H](O)[C@H](O)[C@H]1O | 4.46 |

Data provenance is ChEMBL document CHEMBL3739360.
